The origin of these recorded values is patent US8536354B2.

Answer each item with its documented EC50.
test-target: BmEcR (GAL4-EcR DEF with VP16-RXR-USP chimera) (Bombyx mori)
Sequence (P49881 other isoform, or with tags, fused parts or gaps, change not shown): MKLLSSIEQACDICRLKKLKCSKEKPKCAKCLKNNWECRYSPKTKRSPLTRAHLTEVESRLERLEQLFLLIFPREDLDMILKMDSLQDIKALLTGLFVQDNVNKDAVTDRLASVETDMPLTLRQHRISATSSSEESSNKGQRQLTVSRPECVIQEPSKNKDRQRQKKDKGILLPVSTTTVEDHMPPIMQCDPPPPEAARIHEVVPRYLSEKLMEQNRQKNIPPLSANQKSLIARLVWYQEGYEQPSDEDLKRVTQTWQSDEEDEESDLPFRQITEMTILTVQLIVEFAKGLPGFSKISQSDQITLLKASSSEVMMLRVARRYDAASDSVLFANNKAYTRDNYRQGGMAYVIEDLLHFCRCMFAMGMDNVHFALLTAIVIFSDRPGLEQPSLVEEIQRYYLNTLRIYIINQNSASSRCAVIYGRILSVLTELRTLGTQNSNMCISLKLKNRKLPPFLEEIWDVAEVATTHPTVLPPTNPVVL
procedure-summary: Two-hybrid gene switch assay, luciferase reporter, BmEcR, mouse NIH3T3 cells
Type: cell-based
condition-description: EC50, FIG. 13A/13B; BmEcR, GAL4-EcR(DEF) with VP16-RXR-USP chimera

Known EC50 results, listed for orientation:
* CCCCCC(=O)OC1CC2(C)C(C(C)(O)C(O)CCC(C)(C)O)CCC2(O)C2=CC(=O)C3CC(O)C(O)CC3(C)C21 (stereo not drawn) [turkesterone-11 a -hexanoate] | > 33 µM
* CC(C)CC[C@@H](O)[C@](C)(O)[C@H]1CC[C@@]2(O)C3=CC(=O)[C@]4(O)C[C@@H](O)[C@@H](O)C[C@]4(C)[C@H]3[C@H](O)C[C@]12C [Mur A, muristerone A, reference compound] | 2.98 µM
* CC(C)(O)CC[C@@H](O)[C@](C)(O)[C@H]1CC[C@@]2(O)C3=CC(=O)[C@]4(O)C[C@@H](O)[C@@H](O)C[C@]4(C)[C@H]3CC[C@]12C | ~8 µM
* CC(C)(O)CC[C@@H](O)[C@](C)(O)[C@H]1CC[C@@]2(O)C3=CC(=O)[C@@H]4C[C@@H](O)[C@@H](O)C[C@]4(C)[C@H]3[C@H](O)C[C@]12C | > 33 µM
* CC(C)CC[C@@H](O)[C@](C)(O)[C@H]1CC[C@@]2(O)C3=CC(=O)[C@@H]4C[C@@H](O)[C@@H](O)C[C@]4(C)[C@H]3[C@H](O)C[C@]12C | ~10 µM

// for each compound in input: emit EC50
1. CC(C)=CC[C@@H](O)[C@](C)(O)[C@H]1CC[C@@]2(O)C3=CC(=O)[C@@H]4C[C@@H](O)[C@@H](O)C[C@]4(C)[C@H]3CC[C@]12C
2. CCC(=O)OC1CC2(C)C(C(C)(O)C(O)CCC(C)(C)O)CCC2(O)C2=CC(=O)C3CC(O)C(O)CC3(C)C21 (stereo not drawn) [turkesterone-11 a -propionate]
3. CCCCCCCCCC(=O)OC1CC2(C)C(C(C)(O)C(O)CCC(C)(C)O)CCC2(O)C2=CC(=O)C3CC(O)C(O)CC3(C)C21 (stereo not drawn) [turkesterone-11a-decanoate]

Reply:
1. ~5 µM
2. > 33 µM
3. > 33 µM

Ask: Record C[C@H]([C@H](O)CCC(C)(C)O)[C@H]1CC[C@@]2(O)C3=CC(=O)[C@@H]4C[C@@H](O)[C@@H](O)C[C@]4(C)[C@H]3CC[C@]12C : what is its EC50 with BmEcR (GAL4-EcR DEF with VP16-RXR-USP chimera) (Bombyx mori)?
Reply: > 33 µM

* * *

test-target: wild-type CfEcR (GAL4-CfEcR-DEF with VP16-RXR-USP chimera) (Choristoneura fumiferana)
Sequence (O77255 219-541, change not shown): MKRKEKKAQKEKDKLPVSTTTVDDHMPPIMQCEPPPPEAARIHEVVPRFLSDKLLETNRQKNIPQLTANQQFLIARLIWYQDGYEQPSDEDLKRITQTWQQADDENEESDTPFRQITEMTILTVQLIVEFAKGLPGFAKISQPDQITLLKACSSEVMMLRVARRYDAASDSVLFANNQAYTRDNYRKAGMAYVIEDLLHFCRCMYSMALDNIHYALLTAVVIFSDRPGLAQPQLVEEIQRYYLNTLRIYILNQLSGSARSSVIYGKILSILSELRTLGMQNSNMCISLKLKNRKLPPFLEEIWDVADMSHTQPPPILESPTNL
Sequence (P28702 whole entry partner, the tested form may be a part): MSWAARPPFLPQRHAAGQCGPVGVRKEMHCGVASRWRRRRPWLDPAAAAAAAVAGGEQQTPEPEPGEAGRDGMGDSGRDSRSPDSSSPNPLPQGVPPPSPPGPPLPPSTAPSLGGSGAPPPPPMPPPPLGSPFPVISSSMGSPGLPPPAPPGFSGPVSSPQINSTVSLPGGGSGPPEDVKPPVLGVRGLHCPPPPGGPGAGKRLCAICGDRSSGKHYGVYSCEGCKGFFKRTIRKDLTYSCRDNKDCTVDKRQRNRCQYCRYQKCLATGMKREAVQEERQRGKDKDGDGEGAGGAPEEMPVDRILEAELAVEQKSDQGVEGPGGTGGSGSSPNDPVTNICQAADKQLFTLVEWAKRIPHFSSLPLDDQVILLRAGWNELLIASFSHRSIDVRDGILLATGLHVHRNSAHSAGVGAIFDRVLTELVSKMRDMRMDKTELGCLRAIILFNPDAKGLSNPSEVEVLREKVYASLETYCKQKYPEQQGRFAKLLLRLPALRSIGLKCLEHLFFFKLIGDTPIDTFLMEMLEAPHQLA
procedure-summary: Two-hybrid gene switch assay, luciferase reporter, wild-type CfEcR, mouse NIH3T3 cells
pEC50: −log10 of the molar value.
Answer each item with its documented pEC50.

Known pEC50 results, listed for orientation:
- CC(C)CC[C@@H](O)[C@](C)(O)[C@H]1CC[C@@]2(O)C3=CC(=O)[C@@H]4C[C@@H](O)[C@@H](O)C[C@]4(C)[C@H]3[C@H](O)C[C@]12C [ajugasterone C]: ~4.70
- CC(=O)OCC(=O)O[C@H](CCC(C)(C)O)[C@](C)(O)[C@H]1CC[C@@]2(O)C3=CC(=O)[C@@H]4C[C@@H](O)[C@@H](O)C[C@]4(C)[C@H]3CC[C@]12C [20-hydroxyecdysone 22-acetoxyacetate]: < 4.48

Continue with the next compound.
Ask: Record C[C@H]([C@H](O)CCC(C)(C)O)[C@H]1CC[C@@]2(O)C3=CC(=O)[C@@H]4C[C@@H](O)[C@@H](O)C[C@]4(C)[C@H]3CC[C@]12C [ecdysone] : what is its pEC50 with wild-type CfEcR (GAL4-CfEcR-DEF with VP16-RXR-USP chimera) (Choristoneura fumiferana)?
Reply: < 4.48

* * *

test-target: wild-type Drosophila melanogaster EcR (DmEcR-DEF) (Drosophila melanogaster, UniProt P34021)
Sequence (P34021 342-878 limits assumed): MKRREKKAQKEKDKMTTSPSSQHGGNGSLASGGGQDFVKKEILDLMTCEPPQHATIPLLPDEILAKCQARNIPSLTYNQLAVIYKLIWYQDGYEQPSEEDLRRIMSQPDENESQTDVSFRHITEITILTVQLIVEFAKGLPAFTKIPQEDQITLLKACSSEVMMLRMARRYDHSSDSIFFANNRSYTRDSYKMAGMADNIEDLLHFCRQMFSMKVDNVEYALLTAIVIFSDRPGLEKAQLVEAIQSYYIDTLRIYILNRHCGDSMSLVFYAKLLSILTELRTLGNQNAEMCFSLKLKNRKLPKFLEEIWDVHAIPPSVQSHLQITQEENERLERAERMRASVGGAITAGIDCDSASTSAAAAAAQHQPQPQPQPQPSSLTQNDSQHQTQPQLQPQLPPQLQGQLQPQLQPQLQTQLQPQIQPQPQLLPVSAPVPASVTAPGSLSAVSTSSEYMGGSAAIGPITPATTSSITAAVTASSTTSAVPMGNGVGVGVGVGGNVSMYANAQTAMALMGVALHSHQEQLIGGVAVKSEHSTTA
procedure-summary: Two-hybrid gene switch assay, DmEcR-DEF in NIH3T3 cells
condition-description: DmEcR; max fold induction at any concentration relative to 20E
Values of rel max FI (20E), DM strictly less than 0.02 map to YES, and values of at least 0.02 map to NO.

Solved entries (count: 4):
* COC1C[C@H]2C(=O)C=C3[C@H](CC[C@]4(C)[C@@H]([C@@](C)(O)C(CCC(C)(C)O)OC)CC[C@@]34OC)[C@@]2(C)CC1OC (stereo partly drawn) [20E-2,3,14,22-tetramethyl ether] | YES
* CO[C@H]1C[C@@]2(C)[C@@H](C[C@H]1O)C(=O)C=C1[C@@H]2CC[C@]2(C)[C@@H]([C@@](C)(O)[C@@H](CCC(C)(C)O)OC)CC[C@@]12O [20E-2,22-dimethyl ether] | NO
* CO[C@H]1C[C@@]2(C)[C@@H](C[C@H]1O)C(=O)C=C1[C@@H]2CC[C@]2(C)[C@@H]([C@@](C)(O)[C@H](O)CCC(C)(C)O)CC[C@@]12O [20E-2-methyl ether] | YES
* CO[C@H](CCC(C)(C)O)[C@](C)(O)C1CC[C@@]2(O)C3=CC(=O)C4C[C@@H](O)[C@@H](O)CC4(C)C3CCC12C (stereo partly drawn) [20E-22-methyl ether] | NO

Ask: Just wondering, is rel max FI (20E), DM of CO[C@@H]1C[C@H]2C(=O)C=C3[C@H](CC[C@]4(C)[C@@H]([C@@](C)(O)[C@@H](CCC(C)(C)O)OC)CC[C@@]34O)[C@@]2(C)C[C@@H]1O [20E-3,22-dimethyl ether] below 0.02?
Reply: NO

* * *

test-target: wild-type Choristoneura fumiferana EcR (CfEcR-DEF) (Choristoneura fumiferana)
Sequence (O77255 219-541): as the sequence (O77255 219-541, change not shown) above, with A230E counted along it
Sequence (P28702 299-449 partner): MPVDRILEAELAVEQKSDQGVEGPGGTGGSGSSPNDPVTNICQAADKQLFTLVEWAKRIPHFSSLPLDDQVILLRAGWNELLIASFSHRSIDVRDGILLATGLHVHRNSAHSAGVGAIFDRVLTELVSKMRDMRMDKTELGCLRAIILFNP
procedure-summary: Two-hybrid gene switch assay, wild-type CfEcR-DEF (GAL4-EcR / VP16-RXR-USP chimera, luciferase) in NIH3T3 cells
pEC50: −log10 of the molar value.
Answer each item with its documented pEC50.

- CC(C)CC[C@@H](O)[C@](C)(O)[C@H]1CC[C@@]2(O)C3=CC(=O)[C@@H]4C[C@@H](O)[C@@H](O)C[C@]4(C)[C@H]3CC[C@]12C: 6.72
- CO[C@H](CCC(C)(C)O)[C@](C)(O)C1CC[C@@]2(O)C3=CC(=O)C4C[C@@H](O)[C@@H](O)CC4(C)C3CCC12C (some centres unmarked) [20E-22-methyl ether]: < 4.48
- CO[C@@H]1C[C@H]2C(=O)C=C3[C@H](CC[C@]4(C)[C@@H]([C@@](C)(O)[C@@H](CCC(C)(C)O)OC)CC[C@@]34O)[C@@]2(C)C[C@@H]1O [20E-3,22-dimethyl ether]: < 4.48
- CO[C@@H]1C[C@H]2C(=O)C=C3[C@H](CC[C@]4(C)[C@@H]([C@@](C)(O)[C@H](O)CCC(C)(C)O)CC[C@@]34O)[C@@]2(C)C[C@@H]1O [20E-3-methyl ether]: < 4.48

Continue with the next molecule.
Ask: # get_value(readout='pEC50', item= CCCO[C@H](CCC(C)(C)O)[C@](C)(O)C1CC[C@@]2(O)C3=CC(=O)C4C[C@@H](O)[C@@H](O)CC4(C)C3CCC12C (some centres unmarked) [20E-22-n-propyl ether] )
Reply: < 4.48

* * *

test-target: wild-type Aedes aegypti EcR (AaEcR; GAL4-EcR DEF with VP16-RXR-USP chimera) (Aedes aegypti, UniProt P49880)
Sequence (P49880 with tags, fused parts or gaps limits assumed, change not shown): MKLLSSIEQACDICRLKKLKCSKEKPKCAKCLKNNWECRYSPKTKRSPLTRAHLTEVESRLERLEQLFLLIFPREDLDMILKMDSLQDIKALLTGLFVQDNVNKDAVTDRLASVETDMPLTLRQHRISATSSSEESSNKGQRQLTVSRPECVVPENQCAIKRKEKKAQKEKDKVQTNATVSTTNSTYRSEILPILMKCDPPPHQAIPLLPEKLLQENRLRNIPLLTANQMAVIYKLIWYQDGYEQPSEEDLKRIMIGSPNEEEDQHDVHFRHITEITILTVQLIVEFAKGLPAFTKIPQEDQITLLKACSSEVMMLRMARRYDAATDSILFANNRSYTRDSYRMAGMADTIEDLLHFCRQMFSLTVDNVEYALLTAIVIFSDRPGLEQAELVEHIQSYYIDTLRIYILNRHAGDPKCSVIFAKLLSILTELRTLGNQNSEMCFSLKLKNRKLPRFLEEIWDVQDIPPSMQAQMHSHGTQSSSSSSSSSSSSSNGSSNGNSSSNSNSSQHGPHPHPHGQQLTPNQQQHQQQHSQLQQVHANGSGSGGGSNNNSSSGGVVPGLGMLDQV
procedure-summary: Two-hybrid gene switch assay, luciferase reporter, wild-type AaEcR, mouse NIH3T3 cells
Assay type: cell-based
condition-description: EC50, FIG. 8
measurement-label: EC50

Ask: # get_value(readout='EC50', item= COC(C)(C)CC[C@@H](O)[C@](C)(O)[C@H]1CC[C@@]2(O)C3=CC(=O)[C@@H]4C[C@@H](O)[C@@H](O)C[C@]4(C)[C@H]3CC[C@]12C )
Reply: ~300 nM
